test system: SW1271 complex spheroids with HUVEC/MSC, growth, % test/control; assay: Anticancer human tumor SW1271 cell line growth inhibition [AhR]; conditions: second compound 1 µM; first compound 0.0949 µM; active compounds read low;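 further: spheroids exposed to agents for 7 days before readout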
Can you tell me viability, T/C for the items I'm about to list?
Reply with just the number (in %).

IN: Would you mind telling me what viability, T/C value was observed for O=C(C=Cn1cnc(-c2cc(C(F)(F)F)cc(C(F)(F)F)c2)n1)NNc1cnccn1 + Cc1ccccc1N=Nc1ccc(NC(=O)c2ccnn2C)c(C)c1 ?
OUT: 79

IN: Would you mind telling me what viability, T/C value was observed for CCc1c2c(nc3ccc(O)cc13)-c1cc3c(c(=O)n1C2)COC(=O)[C@]3(O)CC + Cc1cncc(-c2nc(NCCc3c[nH]c4ccccc34)c3ncn(C(C)C)c3n2)c1 ?
OUT: 64.1

IN: Would you mind telling me what viability, T/C value was observed for Nc1ncn(C2CC(O)C(CO)S2)c(=O)n1 (centres undefined) + CC(CO)NC(=O)c1cc(-c2ccc(Cl)cc2)nn(-c2cnn(C)c2)c1=O ?
OUT: 99.2

IN: Would you mind telling me what viability, T/C value was observed for CCN(c1cc(-c2ccc(CN3CCOCC3)cc2)cc(C(=O)NCc2c(C)cc(C)[nH]c2=O)c1C)C1CCOCC1 + Cc1cncc(-c2nc(NCCc3c[nH]c4ccccc34)c3ncn(C(C)C)c3n2)c1 ?
OUT: 118

IN: Would you mind telling me what viability, T/C value was observed for Nc1ncn(C2CC(O)C(CO)S2)c(=O)n1 (centres undefined) + Cc1ccccc1N=Nc1ccc(NC(=O)c2ccnn2C)c(C)c1 ?
OUT: 76.9

IN: Would you mind telling me what viability, T/C value was observed for CCN(c1cc(-c2ccc(CN3CCOCC3)cc2)cc(C(=O)NCc2c(C)cc(C)[nH]c2=O)c1C)C1CCOCC1 + Cc1ccccc1N=Nc1ccc(NC(=O)c2ccnn2C)c(C)c1 ?
OUT: 122

IN: Would you mind telling me what viability, T/C value was observed for CC(C)CC(NC(=O)C(Cc1ccccc1)NC(=O)c1cnccn1)B(O)O (centres undefined) + CC(CO)NC(=O)c1cc(-c2ccc(Cl)cc2)nn(-c2cnn(C)c2)c1=O ?
OUT: 0.31

IN: Would you mind telling me what viability, T/C value was observed for CC(C)CC(NC(=O)C(Cc1ccccc1)NC(=O)c1cnccn1)B(O)O (centres undefined) + Cc1ccccc1N=Nc1ccc(NC(=O)c2ccnn2C)c(C)c1 ?
OUT: 1.1

IN: Would you mind telling me what viability, T/C value was observed for CC(C)CC(NC(=O)C(Cc1ccccc1)NC(=O)c1cnccn1)B(O)O (centres undefined) + Cc1cncc(-c2nc(NCCc3c[nH]c4ccccc34)c3ncn(C(C)C)c3n2)c1 ?
OUT: 0.75

----------
system: SW1271 complex spheroids with HUVEC/MSC, growth, % test/control; assay: Anticancer human tumor SW1271 cell line growth inhibition [AhR]; conditions: second compound 10 µM; first compound 3.16 µM; active compounds read low;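 further: spheroids exposed to agents for 7 days before readout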
Can you tell me viability, T/C for the items I'm about to list?
Reply with just the number (in %).

IN: Would you mind telling me what viability, T/C value was observed for COc1ccc([C@@H](O)c2cc(-c3ncnc4cc(N5CCOCC5)ccc34)c(F)cc2Cl)nn1 + Cc1cncc(-c2nc(NCCc3c[nH]c4ccccc34)c3ncn(C(C)C)c3n2)c1 ?
OUT: 22.1

IN: Would you mind telling me what viability, T/C value was observed for CC(C)c1c(-c2ccccc2)nc2c(C#N)c[nH]n2c1=O + CC(CO)NC(=O)c1cc(-c2ccc(Cl)cc2)nn(-c2cnn(C)c2)c1=O ?
OUT: 62.9

IN: Would you mind telling me what viability, T/C value was observed for Nc1ccn(C2OC(CO)C(O)C2(F)F)c(=O)n1 (centres undefined) + Cc1ccccc1N=Nc1ccc(NC(=O)c2ccnn2C)c(C)c1 ?
OUT: 44.7

IN: Would you mind telling me what viability, T/C value was observed for COc1cc(C2c3cc4c(cc3C(OC3OC5COC(C)OC5C(O)C3O)C3COC(=O)C23)OCO4)cc(OC)c1O (centres undefined) + CC(CO)NC(=O)c1cc(-c2ccc(Cl)cc2)nn(-c2cnn(C)c2)c1=O ?
OUT: 43.4
